Measured values drawn from ChEMBL document CHEMBL1124057 for this set.

assay: The time for complete recovery of the AVP effect was measured; assay type: ADME
*1 amine or outer side, *2 acyl side, *3 side chain or, on linkers, in order; H or OH if unused. Where a SMILES comes first, the peptide text is derived from it. Bridges are numbered along the chain shown (N, C = ends). X1 = CC(C)(C)C1CCC(CC(=O)[*:1])(S[*:2])CC1; X4 = O=C(CC1(S[*:2])CCC(c2ccccc2)CC1)[*:1]; X2 = CC1CCC(CC(=O)[*:1])(S[*:2])CC1; X3 = CN1CCC(CC(=O)[*:1])(S[*:2])CC1; X6 = O=C(CC1(S[*:2])CCCCC1)[*:1]
Reported Time values for a set of molecules
READOUT_TYPE: Time

MOLECULE | READOUT_TYPE | TEST_VALUE
COc1ccc(C[C@@H]2NC(=O)CC3(CCC(c4ccccc4)CC3)SSC[C@@H](C(=O)N3CCC[C@H]3C(=O)N[C@@H](CCCN=C(N)N)C(=O)NCC(N)=O)NC(=O)[C@H](CC(N)=O)NC(=O)[C@H](CCC(N)=O)NC(=O)[C@H](Cc3ccccc3)NC2=O)cc1 (stereo partly specified) (Y(Me)FQNCPRG-NH2; linker N-5 via X4) | Time | > 180 min
NC(=O)CC[C@@H]1NC(=O)[C@H](Cc2ccccc2)NC(=O)[C@H](Cc2ccc(O)cc2)NC(=O)CC2(CCC(c3ccccc3)CC2)SSC[C@@H](C(=O)N2CCC[C@H]2C(=O)N[C@@H](CCCN=C(N)N)C(=O)NCC(N)=O)NC(=O)[C@H](CC(N)=O)NC1=O (stereo partly specified) (YFQNCPRG-NH2; linker N-5 via X4) | Time | > 180 min
CC(C)(C)C1CCC2(CC1)CC(=O)N[C@@H](Cc1ccc(O)cc1)C(=O)N[C@@H](Cc1ccccc1)C(=O)N[C@@H](CCC(N)=O)C(=O)N[C@@H](CC(N)=O)C(=O)N[C@H](C(=O)N1CCC[C@H]1C(=O)N[C@@H](CCCN=C(N)N)C(=O)NCC(N)=O)CSS2 (stereo partly specified) (YFQNCPRG-NH2; linker N-5 via X1) | Time | 125 min
COc1ccc(C[C@@H]2NC(=O)CC3(CCN(C)CC3)SSC[C@@H](C(=O)N3CCC[C@H]3C(=O)N[C@@H](CCCN=C(N)N)C(=O)NCC(N)=O)NC(=O)[C@H](CC(N)=O)NC(=O)[C@H](CCC(N)=O)NC(=O)[C@H](Cc3ccccc3)NC2=O)cc1 (Y(Me)FQNCPRG-NH2; linker N-5 via X3) | Time | 110 min
COc1ccc(C[C@@H]2NC(=O)CC3(CCCCC3)SSC[C@@H](C(=O)N3CCC[C@H]3C(=O)N[C@@H](CCCN=C(N)N)C(=O)NCC(N)=O)NC(=O)[C@H](CC(N)=O)NC(=O)[C@H](CCC(N)=O)NC(=O)[C@H](Cc3ccccc3)NC2=O)cc1 (Y(Me)FQNCPRG-NH2; linker N-5 via X6) | Time | 126 min
CC1CCC2(CC1)CC(=O)N[C@@H](Cc1ccc(O)cc1)C(=O)N[C@@H](Cc1ccccc1)C(=O)N[C@@H](CCC(N)=O)C(=O)N[C@@H](CC(N)=O)C(=O)N[C@H](C(=O)N1CCC[C@H]1C(=O)N[C@@H](CCCN=C(N)N)C(=O)NCC(N)=O)CSS2 (stereo partly specified) (YFQNCPRG-NH2; linker N-5 via X2) | Time | 214 min
